# Test system: NCI-H226 lung
# assay: NCI-60 one-dose screen, 48 h (100 = growth as untreated, 0 = no growth, -100 = all killed)
# measurementSetup: 10 µM unless noted
# Procedure: Growth inhibition of the NCI-H226 human Non-Small Cell Lung tumor cell line is measured as a screen for anti-cancer activity. Cells are grown in 96 well plates and exposed to the test compound for 48 hours. Compounds are tested at a single concentration, which is 10^-5 M for most compounds. The reported endpoint is percent growth (GI% or GIPRCNT), where numbers from 0 - 100% represent growth inhibition, and numbers from -100% - 0 represent cell death. […]
Compounds without any hit were thinned out: in the full panel of roughly 83,000, 20% have a hit.
Mark 1 only for growth values smaller than 90%; exact matches and larger values are -1.

# example entries with known answers
                                   compound  category
0  Cc1nc2c(nnn2-c2ccccc2)c2nc(-c3ccccc3)oc(=O)c12        -1
1          Nc1ccc(S(=O)(=O)c2ccc(NO)cc2)cc1        -1
2      Clc1ccc(N/N=C(/c2ccccc2)c2ccccn2)nc1         1
3         CCOC(=O)CNS(=O)(=O)CC(=O)c1ccccc1        -1
4  N#Cc1ccc(NC2c3ccccc3CC2O)cc1 (stereo unspecified)        -1

Exercise: Report whether reported growth is lower than 90% (strictly) for CCOc1ccc2nc3ccc(Cl)cc3nc2c1
Key: 1

Exercise: Bench note: check whether CCOC1=C(Cl)C(=O)C(OCC)=C(Cl)C1=O shows growth below 90%
Key: -1
